# Procedure Text: Transcellular transport test using Caco2 cell
# Assay type: in vitro ADME
# Experimental Parameters: human, Caco-2; Caco2 monolayer, A-to-B, 10 μM compound, pH 7.4, 90 minutes
Please provide measured Papp A→B at 90 min, 10 μM for the entries that follow.

Molecule	Observable	Measured
O=C(O)C[C@H](NC(=O)CNC(=O)c1cc(NC2=NCC(F)CN2)c2cn[nH]c2c1)c1ccc(OC(F)F)cc1 (stereo partly shown)	Papp A→B at 90 min, 10 μM	> 1 ×10⁻⁶ cm/s
O=C(O)C[C@H](NC(=O)CNC(=O)c1cc(NC2=NCC(F)CN2)c2cn[nH]c2c1)c1cc(OC(F)(F)F)ccc1F (stereo partly shown)	Papp A→B at 90 min, 10 μM	> 1 ×10⁻⁶ cm/s
O=C(O)C[C@H](NC(=O)CNC(=O)c1cc(NC2=NCC(F)CN2)c2cn[nH]c2c1)c1cc(Br)cc(Br)c1 (stereo partly shown)	Papp A→B at 90 min, 10 μM	> 1 ×10⁻⁶ cm/s
O=C(O)C[C@H](NC(=O)CNC(=O)c1cc(NC2=NCC(F)CN2)c2cn[nH]c2c1)c1cccc(Br)c1 (stereo partly shown)	Papp A→B at 90 min, 10 μM	> 1 ×10⁻⁶ cm/s
Cc1cc([C@H](CC(=O)O)NC(=O)CNC(=O)c2cc(NC3=NCC(F)CN3)c3cn[nH]c3c2)cc(C(F)(F)F)c1 (stereo partly shown)	Papp A→B at 90 min, 10 μM	> 1 ×10⁻⁶ cm/s

Hey, quick one: what's Papp A→B at 90 min, 10 μM for each of these?
1. O=C(O)C[C@H](NC(=O)CNC(=O)c1cc(NC2=NCC(F)CN2)c2cn[nH]c2c1)c1cccc(C(F)F)c1 (stereo partly shown)
2. O=C(O)C[C@H](NC(=O)CNC(=O)c1cc(NC2=NCC(F)CN2)c2cn[nH]c2c1)c1cc(Br)cc(OC(F)(F)F)c1 (stereo partly shown)
3. O=C(O)C[C@H](NC(=O)CNC(=O)c1cc(NC2=NCC(F)CN2)c2cn[nH]c2c1)c1cc(C(F)(F)F)cc(C(F)(F)F)c1 (stereo partly shown)
4. O=C(O)C[C@H](NC(=O)CNC(=O)c1cc(NC2=NCC(F)CN2)c2cn[nH]c2c1)c1cc(Cl)ccc1F (stereo partly shown)
5. O=C(O)C[C@H](NC(=O)CNC(=O)c1cc(NC2=NCC(F)CN2)c2cn[nH]c2c1)c1cc(Cl)cc(Cl)c1 (stereo partly shown)
6. O=C(O)C[C@H](NC(=O)CNC(=O)c1cc(NC2=NCC(F)CN2)c2cn[nH]c2c1)c1cc(-n2cccn2)cc(C(F)(F)F)c1 (stereo partly shown)
7. O=C(O)C[C@H](NC(=O)CNC(=O)c1cc(NC2=NCC(F)CN2)cc2[nH]ncc12)c1cc(I)cc(C(F)(F)F)c1 (stereo partly shown)
8. O=C(O)C[C@H](NC(=O)CNC(=O)c1cc(NC2=NCC(F)CN2)c2cn[nH]c2c1)c1cc(OC(F)F)cc(C(F)(F)F)c1 (stereo partly shown)

1: > 1 ×10⁻⁶ cm/s; 2: > 1 ×10⁻⁶ cm/s; 3: 0.5 to 1 ×10⁻⁶ cm/s; 4: > 1 ×10⁻⁶ cm/s; 5: > 1 ×10⁻⁶ cm/s; 6: 0.5 to 1 ×10⁻⁶ cm/s; 7: 0.1 to 0.5 ×10⁻⁶ cm/s; 8: 0.5 to 1 ×10⁻⁶ cm/s

* * *

Please provide measured IC50 for the entries that follow.
# Experimental Target: αvβ6 (Homo sapiens, UniProt P06756+P18564)
# Construct: endogenous in cells
# Sequence (P06756 31-889 limits assumed): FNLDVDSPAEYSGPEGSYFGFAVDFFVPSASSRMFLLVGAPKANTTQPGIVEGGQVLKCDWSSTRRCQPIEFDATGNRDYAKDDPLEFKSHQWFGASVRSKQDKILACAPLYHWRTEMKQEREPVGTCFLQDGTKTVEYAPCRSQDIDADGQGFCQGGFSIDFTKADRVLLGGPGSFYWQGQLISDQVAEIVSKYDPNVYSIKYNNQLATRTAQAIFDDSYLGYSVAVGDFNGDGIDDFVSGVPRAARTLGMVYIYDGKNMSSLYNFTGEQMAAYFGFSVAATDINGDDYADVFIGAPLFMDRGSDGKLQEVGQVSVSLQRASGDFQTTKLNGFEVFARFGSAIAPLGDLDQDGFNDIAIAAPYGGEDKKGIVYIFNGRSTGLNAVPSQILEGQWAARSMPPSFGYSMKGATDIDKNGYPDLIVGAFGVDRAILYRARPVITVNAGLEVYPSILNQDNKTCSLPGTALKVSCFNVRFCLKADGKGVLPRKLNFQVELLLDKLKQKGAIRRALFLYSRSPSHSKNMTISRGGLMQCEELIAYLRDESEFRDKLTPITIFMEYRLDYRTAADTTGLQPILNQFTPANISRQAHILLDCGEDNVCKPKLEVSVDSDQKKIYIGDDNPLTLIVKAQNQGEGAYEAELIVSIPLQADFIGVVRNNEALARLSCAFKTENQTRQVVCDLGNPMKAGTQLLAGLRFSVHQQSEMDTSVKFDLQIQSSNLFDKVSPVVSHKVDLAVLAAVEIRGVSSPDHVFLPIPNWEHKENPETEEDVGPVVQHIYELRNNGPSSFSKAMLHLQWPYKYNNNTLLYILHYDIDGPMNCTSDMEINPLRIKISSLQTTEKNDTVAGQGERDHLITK
# Sequence (P06756 891-1048 limits assumed): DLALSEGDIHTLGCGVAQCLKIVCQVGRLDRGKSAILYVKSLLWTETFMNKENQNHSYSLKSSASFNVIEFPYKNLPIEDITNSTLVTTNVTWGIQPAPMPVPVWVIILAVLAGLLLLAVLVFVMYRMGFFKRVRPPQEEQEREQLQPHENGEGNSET
# Sequence (P18564 22-788): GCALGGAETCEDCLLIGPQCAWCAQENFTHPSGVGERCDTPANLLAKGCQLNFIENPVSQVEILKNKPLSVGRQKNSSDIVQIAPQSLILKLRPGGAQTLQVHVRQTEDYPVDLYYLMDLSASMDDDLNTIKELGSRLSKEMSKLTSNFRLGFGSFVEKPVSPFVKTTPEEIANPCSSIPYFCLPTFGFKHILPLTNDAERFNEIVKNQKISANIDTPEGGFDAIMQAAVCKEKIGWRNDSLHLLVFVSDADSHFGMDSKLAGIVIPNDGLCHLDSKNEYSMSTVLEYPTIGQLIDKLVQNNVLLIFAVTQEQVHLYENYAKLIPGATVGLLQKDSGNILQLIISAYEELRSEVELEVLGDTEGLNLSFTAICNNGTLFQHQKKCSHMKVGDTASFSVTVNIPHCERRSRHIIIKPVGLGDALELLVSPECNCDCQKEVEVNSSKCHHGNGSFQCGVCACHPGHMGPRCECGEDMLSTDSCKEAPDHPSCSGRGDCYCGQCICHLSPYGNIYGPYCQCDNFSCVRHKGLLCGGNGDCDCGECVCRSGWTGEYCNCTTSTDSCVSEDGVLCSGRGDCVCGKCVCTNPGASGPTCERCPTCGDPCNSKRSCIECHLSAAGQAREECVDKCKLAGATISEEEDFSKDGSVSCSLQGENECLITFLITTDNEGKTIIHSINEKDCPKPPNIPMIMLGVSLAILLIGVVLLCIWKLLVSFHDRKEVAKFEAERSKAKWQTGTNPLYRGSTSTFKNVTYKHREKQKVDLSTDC
# Procedure Text: αvβ6 cell adhesion inhibition test (HT-29 cells on recombinant human LAP protein)
# Experimental Parameters: recombinant human LAP coating, 200 μM MnCl2, 1 hour, read-out: IC50 (rate of inhibition of cell adhesion, αvβ6)

Below are worked cases with known answers.
Molecule	Measured
O=C(O)C[C@H](NC(=O)CNC(=O)c1cc(NC2=NCC(F)CN2)c2cn[nH]c2c1)c1cc(F)cc(C(F)(F)F)c1 (stereo partly shown) [Example 6-(b)]	3 to 10 nM
O=C(O)C[C@H](NC(=O)CNC(=O)c1cc(NC2=NCC(F)CN2)c2cn[nH]c2c1)c1cc(C(F)(F)F)cc(C(F)(F)F)c1 (stereo partly shown) [Example 7-(b)]	< 3 nM
O=C(O)C[C@H](NC(=O)CNC(=O)c1cc(NC2=NCC(F)CN2)c2cn[nH]c2c1)c1ccc(C(F)(F)F)cc1 (stereo partly shown) [Example 47-(b)]	3 to 10 nM
O=C(O)C[C@H](NC(=O)CNC(=O)c1cc(NC2=NCC(F)CN2)c2cn[nH]c2c1)c1cc(Cl)ccc1F (stereo partly shown) [Example 22-(b)]	3 to 10 nM
O=C(O)C[C@H](NC(=O)CNC(=O)c1cc(NC2=NCC(F)CN2)c2cn[nH]c2c1)c1cc(-n2cccn2)cc(C(F)(F)F)c1 (stereo partly shown) [Example 8-(b)]	< 3 nM
O=C(O)C[C@H](NC(=O)CNC(=O)c1cc(NC2=NCC(F)CN2)c2cn[nH]c2c1)c1cc(Cl)cc(I)c1 (stereo partly shown) [Example 21-(b)]	< 3 nM
O=C(O)C[C@H](NC(=O)CNC(=O)c1cc(NC2=NCC(F)CN2)c2cn[nH]c2c1)c1cc(OC(F)F)cc(C(F)(F)F)c1 (stereo partly shown) [Example 24-(b)]	< 3 nM
O=C(O)C[C@H](NC(=O)CNC(=O)c1cc(NC2=NCC(F)CN2)c2cn[nH]c2c1)c1cc(Br)cc(I)c1 (stereo partly shown) [Example 20-(b)]	< 3 nM
O=C(O)C[C@H](NC(=O)CNC(=O)c1cc(NC2=NCC(F)CN2)c2cn[nH]c2c1)c1cc(Br)cc(OC(F)F)c1 (stereo partly shown) [Example 26-(b)]	< 3 nM
O=C(O)C[C@H](NC(=O)CNC(=O)c1cc(NC2=NCC(F)CN2)c2cn[nH]c2c1)c1cc(C(F)(F)F)ccc1Cl (stereo partly shown) [Example 12-(b)]	3 to 10 nM

Hey, quick one: what's IC50 for each of these?
1. O=C(O)C[C@H](NC(=O)CNC(=O)c1cc(NC2=NCC(F)CN2)c2cn[nH]c2c1)c1cc(Cl)c(F)c(C(F)(F)F)c1 (stereo partly shown) [Example 15-(b)]
2. O=C(O)C[C@H](NC(=O)CNC(=O)c1cc(NC2=NCC(F)CN2)c2cn[nH]c2c1)c1cc(Cl)cc(Br)c1 (stereo partly shown) [Example 18-(b)]
3. O=C(O)C[C@H](NC(=O)CNC(=O)c1cc(NC2=NCC(F)CN2)c2cn[nH]c2c1)c1cc(C(F)(F)F)ccc1F (stereo partly shown) [Example 11-(b)]

1. < 3 nM
2. < 3 nM
3. < 3 nM

* * *

# Experimental Target: αvβ1 (UniProt G3HZ55+P06756)
# Sequence (P06756 31-889 limits assumed): as the sequence (P06756 31-889 limits assumed) above
# Sequence (P06756 891-1048 limits assumed): as the sequence (P06756 891-1048 limits assumed) above
# Sequence (G3HZ55 21-798): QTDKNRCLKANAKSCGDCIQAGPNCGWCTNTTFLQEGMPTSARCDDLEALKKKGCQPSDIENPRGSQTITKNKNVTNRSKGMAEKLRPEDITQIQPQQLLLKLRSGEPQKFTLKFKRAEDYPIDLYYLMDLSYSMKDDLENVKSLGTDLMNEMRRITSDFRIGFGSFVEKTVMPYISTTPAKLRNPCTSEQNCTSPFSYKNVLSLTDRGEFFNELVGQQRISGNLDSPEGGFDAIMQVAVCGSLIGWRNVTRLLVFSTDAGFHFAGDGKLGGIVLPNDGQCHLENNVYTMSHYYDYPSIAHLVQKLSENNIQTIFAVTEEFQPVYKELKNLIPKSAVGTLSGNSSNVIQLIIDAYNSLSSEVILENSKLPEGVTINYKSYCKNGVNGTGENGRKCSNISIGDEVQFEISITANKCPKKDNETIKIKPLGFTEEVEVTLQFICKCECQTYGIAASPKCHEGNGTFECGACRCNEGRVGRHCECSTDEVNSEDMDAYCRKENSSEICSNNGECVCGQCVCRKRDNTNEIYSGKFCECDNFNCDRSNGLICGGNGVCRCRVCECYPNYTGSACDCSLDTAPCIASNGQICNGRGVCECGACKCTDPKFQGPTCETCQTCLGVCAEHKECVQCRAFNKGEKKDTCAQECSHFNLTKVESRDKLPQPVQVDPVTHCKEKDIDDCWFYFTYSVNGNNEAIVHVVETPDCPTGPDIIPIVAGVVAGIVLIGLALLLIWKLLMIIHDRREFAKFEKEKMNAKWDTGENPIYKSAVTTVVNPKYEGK
# Procedure Text: αvβ1 cell adhesion inhibition test (αv-transfected CHO cells on human fibronectin)
# Experimental Parameters: human fibronectin coating, 1 mM MnCl2, 1 hour, read-out: IC50 (rate of inhibition of cell adhesion, αvβ1)
pIC50: −log10 of the molar value.
Please provide measured pIC50 for the entries that follow.

Below are worked cases with known answers.
Molecule	pIC50
O=C(O)C[C@H](NC(=O)CNC(=O)c1cc(NC2=NCC(O)CN2)c2cn[nH]c2c1)c1cc(Cl)cc(C(F)(F)F)c1 (stereo partly shown) [Example 50-(b)]	7.52 to 8.00
O=C(O)C[C@H](NC(=O)CNC(=O)c1cc(NC2=NCC(F)CN2)c2cn[nH]c2c1)c1ccc(C(F)(F)F)cc1 (stereo partly shown) [Example 47-(b)]	8.00 to 8.52
O=C(O)C[C@H](NC(=O)CNC(=O)c1cc(NC2=NCC(F)CN2)c2cn[nH]c2c1)c1cc(Cl)cc(I)c1 (stereo partly shown) [Example 21-(b)]	> 8.52
O=C(O)C[C@H](NC(=O)CNC(=O)c1cc(NC2=NCC(F)CN2)c2c(F)n[nH]c2c1)c1cc(Cl)cc(C(F)(F)F)c1 (stereo partly shown) [Example 48-(b)]	8.00 to 8.52
O=C(O)C[C@H](NC(=O)CNC(=O)c1cc(NC2=NCC(F)CN2)c2cn[nH]c2c1)c1cccc(Br)c1 (stereo partly shown) [Example 42-(b)]	8.00 to 8.52
O=C(O)C[C@H](NC(=O)CNC(=O)c1cc(NC2=NCC(F)CN2)c2cn[nH]c2c1)c1cc(OC(F)(F)F)ccc1F (stereo partly shown) [Example 33-(b)]	> 8.52

Hey, quick one: what's pIC50 for each of these?
1. O=C(O)C[C@H](NC(=O)CNC(=O)c1cc(NC2=NCC(F)CN2)c2cn[nH]c2c1)c1cc(OC(F)F)cc(OC(F)F)c1 (stereo partly shown) [Example 30-(b)]
2. O=C(O)C[C@H](NC(=O)CNC(=O)c1cc(NC2=NCC(F)CN2)c2cn[nH]c2c1)c1cccc(N2CCOCC2)c1 (stereo partly shown) [Example 45-(b)]

["> 8.52", "> 8.52"]

Hey, quick one: what's pIC50 for each of these?
1. O=C(O)C[C@H](NC(=O)CNC(=O)c1cc(NC2=NCC(F)CN2)c2cn[nH]c2c1)c1cc(C(F)(F)F)cc(C(F)(F)F)c1 (stereo partly shown) [Example 7-(b)]
2. O=C(O)C[C@H](NC(=O)CNC(=O)c1cc(NC2=NCC(F)CN2)c2cn[nH]c2c1)c1cc(OC(F)F)cc(-n2cccn2)c1 (stereo partly shown) [Example 29-(b)]
3. O=C(O)C[C@H](NC(=O)CNC(=O)c1cc(NC2=NCC(F)CN2)c2cn[nH]c2c1)c1cc(F)cc(C(F)(F)F)c1 (stereo partly shown) [Example 6-(b)]
4. O=C(O)C[C@H](NC(=O)CNC(=O)c1cc(NC2=NCC(F)CN2)c2cn[nH]c2c1)c1cc(Br)cc(Br)c1 (stereo partly shown) [Example 19-(b)]
5. O=C(O)C[C@H](NC(=O)CNC(=O)c1cc(NC2=NCC(F)CN2)c2cn[nH]c2c1)c1ccc(F)c(OC(F)(F)F)c1 (stereo partly shown) [Example 34-(b)]
6. O=C(O)C[C@H](NC(=O)CNC(=O)c1cc(NC2=NCC(F)CN2)c2cn[nH]c2c1)c1cc(Br)cc(C(F)(F)F)c1 (stereo partly shown) [Example 2-(b)]

1: > 8.52; 2: > 8.52; 3: > 8.52; 4: > 8.52; 5: > 8.52; 6: 8.00 to 8.52

Hey, quick one: what's pIC50 for each of these?
1. O=C(O)C[C@H](NC(=O)CNC(=O)c1cc(NC2=NCC(F)CN2)c2cn[nH]c2c1)c1ccc(F)c(OC(F)F)c1 (stereo partly shown) [Example 27-(b)]
2. O=C(O)C[C@H](NC(=O)CNC(=O)c1cc(NC2=NCC(F)CN2)cc2[nH]ncc12)c1ccc(F)c(C(F)(F)F)c1 (stereo partly shown) [Example 55-(b)]

1: > 8.52; 2: > 8.52
